Source listed as ChEMBL document CHEMBL3627633.

target: Urease (Canavalia ensiformis); assay: Inhibition of jack bean urease using urea as substrate assessed as ammonia production incubated for 15 mins by indophenol method
Sequence (P07374 whole entry): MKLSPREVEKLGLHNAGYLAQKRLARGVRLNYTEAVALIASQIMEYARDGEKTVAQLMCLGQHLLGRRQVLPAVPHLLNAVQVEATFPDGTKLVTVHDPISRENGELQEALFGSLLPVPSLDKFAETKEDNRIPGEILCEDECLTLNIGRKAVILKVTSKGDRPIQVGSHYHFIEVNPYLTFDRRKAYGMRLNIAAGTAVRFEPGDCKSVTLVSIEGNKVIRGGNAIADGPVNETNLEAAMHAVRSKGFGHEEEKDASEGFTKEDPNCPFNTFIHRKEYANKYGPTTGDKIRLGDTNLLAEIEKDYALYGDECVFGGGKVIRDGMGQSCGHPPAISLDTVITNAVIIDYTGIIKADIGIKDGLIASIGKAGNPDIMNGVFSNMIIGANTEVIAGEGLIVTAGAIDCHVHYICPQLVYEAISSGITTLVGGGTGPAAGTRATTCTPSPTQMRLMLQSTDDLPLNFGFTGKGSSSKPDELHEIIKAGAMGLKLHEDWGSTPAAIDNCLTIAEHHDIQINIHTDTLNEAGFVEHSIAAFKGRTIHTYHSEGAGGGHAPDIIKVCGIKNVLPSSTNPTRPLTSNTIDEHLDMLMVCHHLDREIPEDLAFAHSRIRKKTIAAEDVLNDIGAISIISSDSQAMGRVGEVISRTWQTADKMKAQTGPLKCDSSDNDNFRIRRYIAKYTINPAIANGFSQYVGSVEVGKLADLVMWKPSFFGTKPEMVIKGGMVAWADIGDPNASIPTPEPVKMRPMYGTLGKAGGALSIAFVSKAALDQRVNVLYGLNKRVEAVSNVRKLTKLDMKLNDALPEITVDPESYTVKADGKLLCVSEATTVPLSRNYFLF
IC50 strictly under 6 µM means Yes; at 6 µM or over means No.

*Q* Is IC50 strictly under 6 µM for the entry S=C(Nc1ccc(Br)cc1)Nc1ccccc1SSc1ccccc1NC(=S)Nc1ccc(Br)cc1 ?
*A* Yes

*Q* Is IC50 strictly under 6 µM for the entry S=C(Nc1ccccc1Cl)Nc1ccccc1SSc1ccccc1NC(=S)Nc1ccccc1Cl ?
*A* Yes

*Q* Is IC50 strictly under 6 µM for the entry Cc1cccc(NC(=S)Nc2ccccc2SSc2ccccc2NC(=S)Nc2cccc(C)c2)c1 ?
*A* Yes

*Q* Is IC50 strictly under 6 µM for the entry NC(N)=S ?
*A* No

*Q* Is IC50 strictly under 6 µM for the entry O=[N+]([O-])c1ccc(NC(=S)Nc2ccccc2SSc2ccccc2NC(=S)Nc2ccc([N+](=O)[O-])cc2)cc1 ?
*A* No

*Q* Is IC50 strictly under 6 µM for the entry S=C(Nc1ccccc1)Nc1ccccc1SSc1ccccc1NC(=S)Nc1ccccc1 ?
*A* No

*Q* Is IC50 strictly under 6 µM for the entry S=C(Nc1ccc(Cl)cc1)Nc1ccccc1SSc1ccccc1NC(=S)Nc1ccc(Cl)cc1 ?
*A* Yes

*Q* Is IC50 strictly under 6 µM for the entry S=C(Nc1ccccc1Br)Nc1ccccc1SSc1ccccc1NC(=S)Nc1ccccc1Br ?
*A* No

*Q* Is IC50 strictly under 6 µM for the entry O=[N+]([O-])c1cccc(NC(=S)Nc2ccccc2SSc2ccccc2NC(=S)Nc2cccc([N+](=O)[O-])c2)c1 ?
*A* No

*Q* Is IC50 strictly under 6 µM for the entry FC(F)(F)c1ccc(NC(=S)Nc2ccccc2SSc2ccccc2NC(=S)Nc2ccc(C(F)(F)F)cc2)cc1 ?
*A* Yes

*Q* Is IC50 strictly under 6 µM for the entry S=C(Nc1cccc(Br)c1)Nc1ccccc1SSc1ccccc1NC(=S)Nc1cccc(Br)c1 ?
*A* No

*Q* Is IC50 strictly under 6 µM for the entry Cc1ccc(NC(=S)Nc2ccccc2SSc2ccccc2NC(=S)Nc2ccc(C)cc2)cc1 ?
*A* Yes

*Q* Is IC50 strictly under 6 µM for the entry Fc1ccc(NC(=S)Nc2ccccc2SSc2ccccc2NC(=S)Nc2ccc(F)cc2)cc1 ?
*A* Yes

*Q* Is IC50 strictly under 6 µM for the entry COc1cccc(NC(=S)Nc2ccccc2SSc2ccccc2NC(=S)Nc2cccc(OC)c2)c1 ?
*A* No

*Q* Is IC50 strictly under 6 µM for the entry COc1ccc(NC(=S)Nc2ccccc2SSc2ccccc2NC(=S)Nc2ccc(OC)cc2)cc1 ?
*A* Yes

*Q* Is IC50 strictly under 6 µM for the entry COc1ccccc1NC(=S)Nc1ccccc1SSc1ccccc1NC(=S)Nc1ccccc1OC ?
*A* Yes

*Q* Is IC50 strictly under 6 µM for the entry Fc1ccccc1NC(=S)Nc1ccccc1SSc1ccccc1NC(=S)Nc1ccccc1F ?
*A* Yes

*Q* Is IC50 strictly under 6 µM for the entry Fc1cccc(NC(=S)Nc2ccccc2SSc2ccccc2NC(=S)Nc2cccc(F)c2)c1 ?
*A* Yes

*Q* Is IC50 strictly under 6 µM for the entry Cc1ccccc1NC(=S)Nc1ccccc1SSc1ccccc1NC(=S)Nc1ccccc1C ?
*A* Yes

*Q* Is IC50 strictly under 6 µM for the entry S=C(Nc1ccc(Cl)c(Cl)c1)Nc1ccccc1SSc1ccccc1NC(=S)Nc1ccc(Cl)c(Cl)c1 ?
*A* Yes

*Q* Is IC50 strictly under 6 µM for the entry S=C(Nc1ccccc1SSc1ccccc1NC(=S)NC12CC3CC(CC(C3)C1)C2)NC12CC3CC(CC(C3)C1)C2 ?
*A* No

---

target: UniProtKB P81908; test: Inhibition of equine serum butyrylcholinesterase using […] as substrate preincubated for 15 mins followed by substrate addition measured every 1 min by Ellman's method
Sequence (P81908 whole entry): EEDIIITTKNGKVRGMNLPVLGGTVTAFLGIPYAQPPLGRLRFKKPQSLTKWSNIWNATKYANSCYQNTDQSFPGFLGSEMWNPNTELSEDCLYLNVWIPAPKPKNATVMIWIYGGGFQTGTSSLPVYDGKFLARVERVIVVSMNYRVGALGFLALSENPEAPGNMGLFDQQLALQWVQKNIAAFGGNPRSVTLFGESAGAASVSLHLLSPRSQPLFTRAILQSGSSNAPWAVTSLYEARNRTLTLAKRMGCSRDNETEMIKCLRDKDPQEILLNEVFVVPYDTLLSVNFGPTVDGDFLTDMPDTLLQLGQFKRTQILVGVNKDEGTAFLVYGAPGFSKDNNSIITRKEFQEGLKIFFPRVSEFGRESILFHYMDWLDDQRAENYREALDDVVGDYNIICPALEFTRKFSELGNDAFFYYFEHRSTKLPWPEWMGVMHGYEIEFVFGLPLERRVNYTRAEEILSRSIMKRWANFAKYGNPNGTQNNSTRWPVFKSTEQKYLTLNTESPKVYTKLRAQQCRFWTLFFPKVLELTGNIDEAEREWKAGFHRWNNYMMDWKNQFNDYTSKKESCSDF
The source made the active and inactive calls. No cut-off for these calls is given here.
outcome measure: inhibition

Reference set, count: 8
smi=Cc1ccc(NC(=S)Nc2ccccc2SSc2ccccc2NC(=S)Nc2ccc(C)cc2)cc1 reported_value=inactive
smi=O=[N+]([O-])c1ccc(NC(=S)Nc2ccccc2SSc2ccccc2NC(=S)Nc2ccc([N+](=O)[O-])cc2)cc1 reported_value=inactive
smi=COc1ccccc1NC(=S)Nc1ccccc1SSc1ccccc1NC(=S)Nc1ccccc1OC reported_value=inactive
smi=S=C(Nc1ccc(Br)cc1)Nc1ccccc1SSc1ccccc1NC(=S)Nc1ccc(Br)cc1 reported_value=inactive
smi=O=[N+]([O-])c1cccc(NC(=S)Nc2ccccc2SSc2ccccc2NC(=S)Nc2cccc([N+](=O)[O-])c2)c1 reported_value=inactive
smi=S=C(Nc1ccc(Cl)c(Cl)c1)Nc1ccccc1SSc1ccccc1NC(=S)Nc1ccc(Cl)c(Cl)c1 reported_value=inactive
smi=Fc1ccc(NC(=S)Nc2ccccc2SSc2ccccc2NC(=S)Nc2ccc(F)cc2)cc1 reported_value=inactive
smi=S=C(Nc1cccc(Br)c1)Nc1ccccc1SSc1ccccc1NC(=S)Nc1cccc(Br)c1 reported_value=inactive

*Q* Reported inhibition for UniProtKB P81908, given S=C(Nc1ccccc1)Nc1ccccc1SSc1ccccc1NC(=S)Nc1ccccc1 ?
*A* inactive

*Q* Reported inhibition for UniProtKB P81908, given COc1ccc(NC(=S)Nc2ccccc2SSc2ccccc2NC(=S)Nc2ccc(OC)cc2)cc1 ?
*A* inactive

*Q* Reported inhibition for UniProtKB P81908, given S=C(Nc1ccc(Cl)cc1)Nc1ccccc1SSc1ccccc1NC(=S)Nc1ccc(Cl)cc1 ?
*A* inactive

*Q* Reported inhibition for UniProtKB P81908, given Cc1ccccc1NC(=S)Nc1ccccc1SSc1ccccc1NC(=S)Nc1ccccc1C ?
*A* inactive

---

target: Carbonic anhydrase (Homo sapiens) (UniProt P00918+P43166+P00915+P07451+P23280+O43570+Q9ULX7+Q16790+P22748+Q8N1Q1+Q9Y2D0+P35218); assay: Inhibition of carbonic anhydrase (unknown origin); assay type: protein assay
Activity calls are given as the source filed them. No cut-off for these calls is given here.
outcome measure: inhibition

Reference set, count: 4
smi=Fc1ccc(NC(=S)Nc2ccccc2SSc2ccccc2NC(=S)Nc2ccc(F)cc2)cc1 reported_value=inactive
smi=S=C(Nc1cccc(Br)c1)Nc1ccccc1SSc1ccccc1NC(=S)Nc1cccc(Br)c1 reported_value=inactive
smi=COc1ccc(NC(=S)Nc2ccccc2SSc2ccccc2NC(=S)Nc2ccc(OC)cc2)cc1 reported_value=inactive
smi=O=[N+]([O-])c1cccc(NC(=S)Nc2ccccc2SSc2ccccc2NC(=S)Nc2cccc([N+](=O)[O-])c2)c1 reported_value=inactive

*Q* GET /values?readout=inhibition&item= FC(F)(F)c1ccc(NC(=S)Nc2ccccc2SSc2ccccc2NC(=S)Nc2ccc(C(F)(F)F)cc2)cc1
*A* inactive

*Q* GET /values?readout=inhibition&item= O=[N+]([O-])c1ccc(NC(=S)Nc2ccccc2SSc2ccccc2NC(=S)Nc2ccc([N+](=O)[O-])cc2)cc1
*A* inactive

*Q* GET /values?readout=inhibition&item= Fc1cccc(NC(=S)Nc2ccccc2SSc2ccccc2NC(=S)Nc2cccc(F)c2)c1
*A* inactive

*Q* GET /values?readout=inhibition&item= S=C(Nc1ccc(Br)cc1)Nc1ccccc1SSc1ccccc1NC(=S)Nc1ccc(Br)cc1
*A* inactive

*Q* GET /values?readout=inhibition&item= Cc1cccc(NC(=S)Nc2ccccc2SSc2ccccc2NC(=S)Nc2cccc(C)c2)c1
*A* inactive
